assayed-system: recombinant human MMP-2 (Homo sapiens, UniProt P08253)
Sequence (P08253 110-660): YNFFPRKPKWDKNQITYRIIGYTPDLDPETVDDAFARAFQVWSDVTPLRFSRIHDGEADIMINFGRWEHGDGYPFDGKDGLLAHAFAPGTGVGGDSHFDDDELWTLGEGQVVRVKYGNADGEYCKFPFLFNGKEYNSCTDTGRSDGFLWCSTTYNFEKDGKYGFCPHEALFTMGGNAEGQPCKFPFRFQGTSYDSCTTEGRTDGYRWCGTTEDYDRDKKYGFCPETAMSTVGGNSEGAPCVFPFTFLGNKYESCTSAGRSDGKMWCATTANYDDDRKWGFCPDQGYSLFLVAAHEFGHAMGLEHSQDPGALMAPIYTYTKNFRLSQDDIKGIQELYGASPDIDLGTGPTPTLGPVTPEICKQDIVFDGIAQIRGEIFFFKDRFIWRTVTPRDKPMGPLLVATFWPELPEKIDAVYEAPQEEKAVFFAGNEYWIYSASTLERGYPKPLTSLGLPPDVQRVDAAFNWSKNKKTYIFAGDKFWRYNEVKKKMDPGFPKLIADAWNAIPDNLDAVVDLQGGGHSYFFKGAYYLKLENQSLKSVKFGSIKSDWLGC
method-summary: biochemical
measurement-setup: Inhibition Table A; read-out: MMP-2 IC50
measured-quantity: IC50

INSERT INTO assay_data (compound, recorded_result) VALUES
  ('C#CCN1CCC(C(=O)NO)(S(=O)(=O)c2ccc(Oc3ccc(-n4ccnc4)cc3)cc2)CC1 [Example 23]', '< 0.1 nM'),
  ('CN1CCC(C(=O)NO)(S(=O)(=O)c2ccc(Oc3ccccc3)cc2)CC1 [Example 14]', '< 0.1 nM');

Now look at this one.
Challenge: Param item = C=CCN1CCC(C(=O)NO)(S(=O)(=O)c2ccc(Sc3ccccc3)cc2)CC1 [Example 28] ; retrieve measured IC50.
Response given: < 0.1 nM
